Molecular target: Hepatocyte nuclear factor 6 (Homo sapiens)
Assay: ATG_HNF6_CIS: Attagene CIS-FACTORIAL HepG2 Assay for human Hepatocyte Nuclear Factor 6 (HNF6) (AID 2282952)
Details: HepG2 Attagene cis-factorial HNF6 reporter transcription; actives raise or lower the signal
Active and inactive are the calls of the source. The calls were made as follows: active = hit-call score of the fitted dose curve at least 0.9, where 1 is the maximum; inactive = score below 0.9.
experimentalEndpoint: AC50

compound=Cc1cccc(OCCOc2cccc(C)c2)c1 recordedvalue=inactive
compound=C/C=C\C/C=C/CCCCCCCCOC(C)=O recordedvalue=inactive
compound=CC(C)c1ccc2c(C(C)C)cc(C(C)C)c(S(=O)(=O)O)c2c1 recordedvalue=inactive
compound=O=C(/C=C/C=C/c1ccc2c(c1)OCO2)N1CCCCC1 recordedvalue=inactive
compound="CC(C)CCCC(C)CC=O (stereo not drawn)" recordedvalue=inactive
compound=OC1CCCC1 recordedvalue=inactive
compound=c1ccc(CCCc2ccncc2)cc1 recordedvalue=inactive
compound=O=C1CCCN1CCO recordedvalue=inactive
compound=CC1(C)O[C@@H]2C[C@H]3[C@@H]4C[C@H](F)C5=CC(=O)C=C[C@]5(C)[C@@]4(F)[C@@H](O)C[C@]3(C)[C@]2(C(=O)CO)O1 recordedvalue=inactive
compound=C1=CCCC1 recordedvalue=inactive
compound=O=S1(=O)OC(c2ccc(O)cc2)(c2ccc(O)cc2)c2ccccc21 recordedvalue=inactive
compound=CC(C)(C)c1ccc(OC(=O)c2ccccc2O)cc1 recordedvalue=inactive
compound=c1ccc(CNCc2ccccc2)cc1 recordedvalue=inactive
compound=C=C(C)CCO recordedvalue=inactive
compound=COC(=O)/C=C\C(=O)O recordedvalue=inactive
compound=CCCCCc1ccc(Cl)cc1 recordedvalue=inactive
compound=CC(C)(c1cc(Br)c(OCCO)c(Br)c1)c1cc(Br)c(OCCO)c(Br)c1 recordedvalue="42.2 µM (active)"
compound=CC(C)(C)c1ccc(N)cc1 recordedvalue=inactive
compound=CC(=O)NS(=O)(=O)c1ccc(N)cc1 recordedvalue=inactive
compound=C=C[Si](OC(C)=O)(OC(C)=O)OC(C)=O recordedvalue=inactive
compound=COC=O recordedvalue=inactive
compound=O=C1c2ccccc2C(=O)C1c1nc2ccccc2c(Br)c1O recordedvalue=inactive
compound=O=C(c1ccc(O)cc1)c1ccc(O)cc1O recordedvalue=inactive
compound=C1CN(SSN2CCOCC2)CCO1 recordedvalue=inactive
compound=CCCCNc1ccc(NCCCC)c2c1C(=O)c1ccccc1C2=O recordedvalue=inactive
compound=CNC(=S)NN recordedvalue=inactive
compound=OCCN(CCO)c1ccccc1 recordedvalue=inactive
compound=Nc1ccc(-c2ccc(F)cc2)cc1 recordedvalue=inactive
compound=O=C(C=Cc1ccccc1)OCc1ccccc1 recordedvalue=inactive
compound=O=C(C(Cl)Cl)N1CCOC12CCCCC2 recordedvalue=inactive
compound=Cc1ccc([N+](=O)[O-])cc1S(=O)(=O)O recordedvalue=inactive
compound="c1cc(C(c2ccc(OCC3CO3)cc2)C(c2ccc(OCC3CO3)cc2)c2ccc(OCC3CO3)cc2)ccc1OCC1CO1 (stereo not drawn)" recordedvalue=inactive
compound=c1ccc(-c2ccccn2)nc1 recordedvalue=inactive
compound=CCOC(=O)[C@H](C)O recordedvalue=inactive
compound=CCOC(=O)CC(C(C)=O)C(C)=O recordedvalue=inactive
compound="CCC(C)C=O (stereo not drawn)" recordedvalue=inactive
compound=O=CC1CC1 recordedvalue=inactive
compound=FC(F)(F)C(=NOCC1OCCO1)c1ccc(Cl)cc1 recordedvalue=inactive
compound="CC1OC1C1CCC2(C)OC2C1 (stereo not drawn)" recordedvalue=inactive
compound=CC1=CC[C@H](C(C)C)C=C1 recordedvalue=inactive
compound=CC(=O)OCc1ccco1 recordedvalue=inactive
compound=CC(C)(C)c1ccc(-c2ccc(C(C)(C)C)cc2)cc1 recordedvalue=inactive
compound="CCCCC(CC)COC(=O)c1ccccc1O (stereo not drawn)" recordedvalue=inactive
compound=O=S(=O)(O)c1ccccc1C=Cc1ccc(-c2ccc(C=Cc3ccccc3S(=O)(=O)O)cc2)cc1 recordedvalue=inactive
compound=C=C(C)c1cccc(C(C)(C)N=C=O)c1 recordedvalue=inactive
compound=C=C(C)C(=O)OCCOc1ccccc1 recordedvalue=inactive
compound=c1ccc2c(c1)ccc1ncccc12 recordedvalue=inactive
compound=[Cl][Nd]([Cl])[Cl] recordedvalue=inactive
compound=C=C(C)C(=O)OCC(C)C recordedvalue=inactive
compound=C=CCCCCCCCCC(=O)OCCCC recordedvalue=inactive
compound=CCOC(F)(F)C(F)(F)C(F)(F)C(F)(F)F recordedvalue=inactive
compound=CC(C)COC(=O)C=Cc1ccccc1 recordedvalue=inactive
compound=CCOC(=O)Cc1cccc2ccccc12 recordedvalue=inactive
compound=COc1ccc(C(Cl)=C(c2ccc(OC)cc2)c2ccc(OC)cc2)cc1 recordedvalue=inactive
compound=Nc1ccc(Cl)cc1Cl recordedvalue=inactive
compound=CC(C)c1ccc2cc(C(C)C)ccc2c1 recordedvalue=inactive
compound=COCc1c(C(C)C)nc(C(C)C)c(/C=C/[C@@H](O)C[C@@H](O)CC(=O)O)c1-c1ccc(F)cc1 recordedvalue=inactive
compound="CC(C)=CCCC(C)C=O (stereo not drawn)" recordedvalue=inactive
